These measurements were taken from ChEMBL document CHEMBL1131663.

- testSystem: Prostaglandin G/H synthase 1 (Ovis aries)
- Sequence (P05979 whole entry): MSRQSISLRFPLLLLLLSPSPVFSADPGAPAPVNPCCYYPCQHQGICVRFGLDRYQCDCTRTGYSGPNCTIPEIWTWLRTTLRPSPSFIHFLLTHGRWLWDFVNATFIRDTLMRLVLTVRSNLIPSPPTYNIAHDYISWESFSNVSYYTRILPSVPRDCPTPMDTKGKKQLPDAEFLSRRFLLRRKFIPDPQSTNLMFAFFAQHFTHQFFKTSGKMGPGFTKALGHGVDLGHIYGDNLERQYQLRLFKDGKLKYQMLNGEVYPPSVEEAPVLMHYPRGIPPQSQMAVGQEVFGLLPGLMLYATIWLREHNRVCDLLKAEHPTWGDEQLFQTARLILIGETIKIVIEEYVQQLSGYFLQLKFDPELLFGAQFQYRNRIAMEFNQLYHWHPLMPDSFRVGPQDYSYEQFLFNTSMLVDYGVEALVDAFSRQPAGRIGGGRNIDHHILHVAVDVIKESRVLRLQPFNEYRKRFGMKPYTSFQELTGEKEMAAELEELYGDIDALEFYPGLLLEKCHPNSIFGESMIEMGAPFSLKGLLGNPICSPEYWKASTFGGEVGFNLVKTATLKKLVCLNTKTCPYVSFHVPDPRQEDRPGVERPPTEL
pIC50: −log10 of the molar value.
endpointLabel: pIC50

// worked examples, pIC50 included
substancesmiles=CS(=O)(=O)c1ccc(-c2ccccc2-c2cccnc2)cc1 reportedmeasurement="< 3.52"
substancesmiles=CS(=O)(=O)c1ccc(-c2ccccc2N2CCCCC2)cc1 reportedmeasurement=4.37
substancesmiles=CS(=O)(=O)c1ccc(-c2cc([N+](=O)[O-])ccc2-c2ccccc2)cc1 reportedmeasurement="< 3.52"
substancesmiles=CS(=O)(=O)c1ccc(-c2ccccc2Oc2ccccc2)cc1 reportedmeasurement="< 3.00"
substancesmiles=CS(=O)(=O)c1ccc(-c2ccccc2-c2ccccc2)cc1 reportedmeasurement="< 3.00"

In: Can you look up the measured pIC50 of CN1CC=C(c2ccccc2-c2ccc(S(C)(=O)=O)cc2)CC1 for me?
Out: < 3.52

###

- testSystem: Prostaglandin G/H synthase 2 (Homo sapiens)
- assayText: In vitro inhibitory concentration against recombinant human Prostaglandin G/H synthase 2 obtained from baculovirus
endpointLabel: IC50 (µM)

substancesmiles=CS(=O)(=O)c1ccc(-c2cc(N)ccc2-c2ccccc2)cc1 unitabbrev=µM reportedmeasurement=194
substancesmiles=CS(=O)(=O)c1ccc(-c2ccc([N+](=O)[O-])cc2-c2ccccc2)cc1 unitabbrev=µM reportedmeasurement=44
substancesmiles=COc1ccc2cc(-c3ccccc3-c3ccc(S(C)(=O)=O)cc3)ccc2c1 unitabbrev=µM reportedmeasurement=30

1: CS(=O)(=O)c1ccc(-c2cc3ccccc3cc2-c2ccccc2)cc1
2: CS(=O)(=O)c1ccc(-c2ccccc2N2CCCCC2)cc1
3: CS(=O)(=O)c1ccc(-c2ccc(N)cc2-c2ccccc2)cc1
In: # rank by IC50, ascending (min first) Reply with the labels, ordered as the question asks.
Out: 2, 1, 3

A: CS(=O)(=O)c1ccc(-c2ccccc2C2=CCCCC2)cc1
B: COC(=O)c1ccc(-c2ccccc2)c(-c2ccc(S(C)(=O)=O)cc2)c1
In: Among A and B , which shows a numerically higher IC50 result? // output: label of the selected item
Out: B

###

- testSystem: Prostaglandin G/H synthase 2 (Homo sapiens, UniProt P35354)
- Sequence (P35354 whole entry): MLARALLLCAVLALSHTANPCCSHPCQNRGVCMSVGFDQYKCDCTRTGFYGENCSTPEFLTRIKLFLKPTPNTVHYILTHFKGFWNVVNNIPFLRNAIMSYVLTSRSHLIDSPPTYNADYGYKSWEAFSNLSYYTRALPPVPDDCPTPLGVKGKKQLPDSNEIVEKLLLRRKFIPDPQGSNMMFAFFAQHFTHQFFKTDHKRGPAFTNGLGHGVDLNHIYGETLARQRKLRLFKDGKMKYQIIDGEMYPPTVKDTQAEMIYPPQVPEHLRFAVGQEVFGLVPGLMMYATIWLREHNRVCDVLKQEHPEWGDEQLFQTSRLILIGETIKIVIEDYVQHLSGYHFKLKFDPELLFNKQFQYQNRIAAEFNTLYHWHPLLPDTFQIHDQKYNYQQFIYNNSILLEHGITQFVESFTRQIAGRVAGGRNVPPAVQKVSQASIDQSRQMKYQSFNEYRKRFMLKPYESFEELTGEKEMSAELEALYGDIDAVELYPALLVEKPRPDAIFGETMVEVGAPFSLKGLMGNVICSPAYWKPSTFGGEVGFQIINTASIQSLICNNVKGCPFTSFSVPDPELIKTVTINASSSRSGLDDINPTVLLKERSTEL
- assayText: In vitro inhibitory concentration against recombinant human Prostaglandin G/H synthase 2 obtained from baculovirus
pIC50: −log10 of the molar value.
endpointLabel: pIC50

Please review the entries below; each comes with its answer.
substancesmiles=CS(=O)(=O)c1ccc(-c2ccccc2-c2cccnc2)cc1 testsystem="Prostaglandin G/H synthase 2 (Homo sapiens, UniProt P35354)" endpointlabel=pIC50 reportedmeasurement=4.06
substancesmiles=CS(=O)(=O)c1ccc(-c2cc([N+](=O)[O-])ccc2-c2ccccc2)cc1 testsystem="Prostaglandin G/H synthase 2 (Homo sapiens, UniProt P35354)" endpointlabel=pIC50 reportedmeasurement=4.42
substancesmiles=CS(=O)(=O)c1ccc(-c2ccccc2-c2ccc3ccccc3n2)cc1 testsystem="Prostaglandin G/H synthase 2 (Homo sapiens, UniProt P35354)" endpointlabel=pIC50 reportedmeasurement=4.24
substancesmiles=CS(=O)(=O)c1ccc(-c2ccccc2C2CCCCC2)cc1 testsystem="Prostaglandin G/H synthase 2 (Homo sapiens, UniProt P35354)" endpointlabel=pIC50 reportedmeasurement=4.51

1: CS(=O)(=O)c1ccc(-c2ccccc2Oc2ccccc2)cc1
2: CS(=O)(=O)c1ccc(-c2cc(O)ccc2-c2ccccc2)cc1
In: Param pair: 1 , 2 . Output: the one whose pIC50 is numerically greater. Reply with the label of the item you choose.
Out: 1

###

- testSystem: Prostaglandin G/H synthase 1 (Ovis aries)
- Sequence (P05979 whole entry): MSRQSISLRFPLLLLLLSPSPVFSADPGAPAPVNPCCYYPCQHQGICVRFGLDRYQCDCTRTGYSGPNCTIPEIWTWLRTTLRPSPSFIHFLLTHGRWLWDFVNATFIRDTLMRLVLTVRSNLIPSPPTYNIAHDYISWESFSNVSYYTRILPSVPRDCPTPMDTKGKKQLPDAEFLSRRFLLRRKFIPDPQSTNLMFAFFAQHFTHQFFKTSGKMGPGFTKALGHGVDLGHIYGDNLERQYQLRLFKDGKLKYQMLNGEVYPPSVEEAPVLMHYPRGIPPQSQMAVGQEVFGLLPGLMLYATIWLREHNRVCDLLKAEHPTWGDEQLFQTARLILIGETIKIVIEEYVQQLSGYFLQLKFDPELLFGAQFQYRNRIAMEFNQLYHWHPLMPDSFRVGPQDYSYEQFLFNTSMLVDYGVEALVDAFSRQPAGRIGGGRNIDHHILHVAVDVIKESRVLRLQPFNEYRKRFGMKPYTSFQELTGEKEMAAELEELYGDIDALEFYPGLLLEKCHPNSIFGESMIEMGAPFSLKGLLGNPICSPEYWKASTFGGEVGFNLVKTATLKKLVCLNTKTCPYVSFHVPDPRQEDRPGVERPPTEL
pIC50: −log10 of the molar value.
Each item that follows carries a reported pIC50.

Solved cases (5 shown):
substancesmiles=CS(=O)(=O)c1ccc(-c2ncccc2-c2ccccc2)cc1 endpointlabel=pIC50 reportedmeasurement="< 3.52"
substancesmiles=COc1ccc2cc(-c3ccccc3-c3ccc(S(C)(=O)=O)cc3)ccc2c1 endpointlabel=pIC50 reportedmeasurement="< 3.00"
substancesmiles=CS(=O)(=O)c1ccc(-c2cc(N)ccc2-c2ccccc2)cc1 endpointlabel=pIC50 reportedmeasurement=4.46
substancesmiles=CS(=O)(=O)c1ccc(-c2ccccc2-c2ccc3ccccc3n2)cc1 endpointlabel=pIC50 reportedmeasurement="< 3.00"
substancesmiles=CS(=O)(=O)c1ccc(-c2ccccc2C2CCCCC2)cc1 endpointlabel=pIC50 reportedmeasurement="< 3.00"

In: Item under review: CS(=O)(=O)c1ccc(-c2ccccc2C2=CCCCC2)cc1 . Reported pIC50?
Out: < 3.00

In: Recorded pIC50 for COC(=O)c1ccc(-c2ccccc2)c(-c2ccc(S(C)(=O)=O)cc2)c1 , please?
Out: < 3.52

###

- testSystem: Prostaglandin G/H synthase 2 (Homo sapiens, UniProt P35354)
- assayText: In vitro inhibitory concentration against recombinant human Prostaglandin G/H synthase 2 obtained from baculovirus
endpointLabel: IC50

substancesmiles=CS(=O)(=O)c1ccc(-c2ccccc2Cc2ccccc2)cc1 reportedmeasurement="> 300 µM"
substancesmiles=CS(=O)(=O)c1ccc(-c2ccccc2-c2ccccn2)cc1 reportedmeasurement="> 300 µM"

# evaluate next
In: Item CS(=O)(=O)c1ccc(-c2nccnc2-c2ccccc2)cc1 has what recorded IC50?
Out: > 300 µM

###

The entries below are paired with their reported IC50.
- testSystem: Prostaglandin G/H synthase 2 (Homo sapiens)
- assayText: In vitro inhibitory concentration against recombinant human Prostaglandin G/H synthase 2 obtained from baculovirus

substancesmiles=CS(=O)(=O)c1ccc(-c2ccccc2-c2ccncc2)cc1 endpointlabel=IC50 reportedmeasurement="> 300 µM"

In: Name the reported IC50 value associated with the compound CS(=O)(=O)c1ccc(-c2ncccc2-c2ccccc2)cc1
Out: > 300 µM

In: Can you share its IC50? I mean this compound: CN1CC=C(c2ccccc2-c2ccc(S(C)(=O)=O)cc2)CC1
Out: > 300 µM

In: For the compound shown here, CS(=O)(=O)c1ccc(-c2cc(C(=O)O)ccc2-c2ccccc2)cc1 , give the reported IC50.
Out: > 300 µM

In: Query: IC50; subject: CS(=O)(=O)c1ccc(-c2ccccc2-c2cncnc2)cc1
Out: > 300 µM
